assay_explanation: thallium flux modulation in parental HEK cells, confirmation, counter-screen for KCC2 modulator project, cell-based, counterscreen 1 (AID 1716)
condition: HEK293 parental cells, thallium flux FluoZin2, ouabain; at 10 µM; baseline-ratio fluorescence slope, 10–20 s after thallium
The other results are listed elsewhere or left out. Inconclusive results are not listed.
Give measured thallium flux rate (normalised fluorescence) for each item. Keep answers brief.
# answer = number (no unit)

What thallium flux rate (normalised fluorescence) value was documented for this compound, "CCOC(=O)c1c(C)[nH]c(C)c1C(=O)CSc1nc(N)cc(N)n1" ?
0.00758

For the compound shown here, "O=C(NC(=S)N1CCc2ccccc21)c1ccco1" , give the reported thallium flux rate (normalised fluorescence).
0.0311

So what's the measured thallium flux rate (normalised fluorescence) for this one? "Cc1[nH]n(-c2ccccc2)c(=O)c1N=Nc1ccccc1C(=O)N1CCCCC1"
0.0142

Any idea what its thallium flux rate (normalised fluorescence) is? The compound is "COc1ccc(C(=O)NC(=S)NNC(=O)c2c(-c3ccccc3)noc2C)cc1"
0.0354

thallium flux rate (normalised fluorescence) for "COc1ccc(NC(=O)N2CCC(Cc3ccccc3)CC2)cc1" ?
0.00728

# input compound: "COc1cc(NC(=O)c2ccccc2NS(=O)(=O)c2ccc(Cl)s2)cc(OC)c1" ; wanted: its thallium flux rate (normalised fluorescence)
0.00377

Give its thallium flux rate (normalised fluorescence) value. Item: "CC(C)n1cnc2c(Nc3cccc(Cl)c3)nc(N(CCO)CCCO)nc21"
0.0075

Using the record for "COC(=O)c1sc(NC(=S)NC(=O)c2ccc(C)cc2)nc1C" , report its thallium flux rate (normalised fluorescence).
0.0618

Which measured thallium flux rate (normalised fluorescence) value corresponds to "COc1cccc(NC(=S)NC(=O)c2c(Cl)c(C)nn2C)c1" ?
0.0727

Query: thallium flux rate (normalised fluorescence); subject: "CCNCc1cc2cc(C)ccc2[nH]c1=O"
0.00817

Name the reported thallium flux rate (normalised fluorescence) value associated with the compound "Cc1ccccc1-c1nc(CS(=O)(=O)CC(=O)N2CCc3ccccc3C2)c(C)o1"
0.00685
